test system: U2OS; assay: Multiplex assay against U2OS; assay type: toxicity, cell-based; conditions: human, 48 h, 1 µM, compound concentration 1 uM, replicate 1
quantity: Population Tubulin-Different-Phenotype (%)
Hi! Could you send only the number? It should be in %, unit omitted.

[Q] # input compound: CN1CCC(=C2c3ccccc3CC(=O)c3sccc32)CC1.O=C(O)/C=C/C(=O)O [KETOTIFEN FUMARATE] ; wanted: its Population Tubulin-Different-Phenotype (%)
[A] 11

[Q] # input compound: `Cl.Oc1ccc2c3c1O[C@H]1c4[nH]c5c(c4C[C@@]4(O)[C@@H](C2)N(CC2CC2)CC[C@]314)C[C@@]1(O)[C@H]2Cc3ccc(O)c4c3[C@@]1(CCN2CC1CC1)[C@H]5O4` ; wanted: its Population Tubulin-Different-Phenotype (%)
[A] 11

[Q] # input compound: `O=C(Nc1ccc(Cl)cc1)Nc1cccc(-c2cccc(N3CCCC3)n2)c1` ; wanted: its Population Tubulin-Different-Phenotype (%)
[A] 2

[Q] # input compound: `S=C(NCCCc1c[nH]cn1)NCCCN(Cc1ccc(Cl)c(Cl)c1)c1ccc(Br)cn1` ; wanted: its Population Tubulin-Different-Phenotype (%)
[A] 10

[Q] # input compound: `Cc1cn(-c2cc(NC(=O)c3ccc(C)c(Nc4nccc(-c5cccnc5)n4)c3)cc(C(F)(F)F)c2)cn1` ; wanted: its Population Tubulin-Different-Phenotype (%)
[A] 80

[Q] # input compound: `CCc1cccc(CC)c1NC(=O)c1nn(C)c2c1CCc1cnc(Nc3ccc(C(=O)NC4CCN(C)CC4)cc3OC(F)(F)F)nc1-2` ; wanted: its Population Tubulin-Different-Phenotype (%)
[A] 17

[Q] # input compound: `O=C(Nc1ccc(-n2nc(-c3cccnc3)cc2C(F)(F)F)cn1)c1ccc(-c2ccccc2)c(F)c1` ; wanted: its Population Tubulin-Different-Phenotype (%)
[A] 10

[Q] # input compound: `CCn1c(=O)c(-c2ccc(-c3cncs3)cc2Cl)cc2cnc(Nc3ccc(N4CCN(C)CC4)cc3)nc21` ; wanted: its Population Tubulin-Different-Phenotype (%)
[A] 9

[Q] # input compound: `O=C(Cc1ccc(-c2ccc(OCCN3CCOCC3)cc2)cn1)NCc1ccccc1` ; wanted: its Population Tubulin-Different-Phenotype (%)
[A] 25

[Q] # input compound: `O=C1NC(=O)C(c2cnc3ccccn23)=C1c1cn2c3c(cc(F)cc13)CN(C(=O)N1CCCCC1)CC2` ; wanted: its Population Tubulin-Different-Phenotype (%)
[A] 12

[Q] # input compound: `CCOc1cc(C(=O)N2CCC(N3CCN(C)CC3)CC2)ccc1Nc1ncc2c(n1)N(C1CCCC1)c1ccccc1C(=O)N2C` ; wanted: its Population Tubulin-Different-Phenotype (%)
[A] 9

[Q] # input compound: `COc1cc(N2CCN(C)CC2)ccc1Nc1ncc2c(n1)N(C)c1ccccc1C(=O)N2C` ; wanted: its Population Tubulin-Different-Phenotype (%)
[A] 8

[Q] # input compound: `O=C1N/C(=N/c2ccccc2F)S/C1=C\c1ccc(C(=O)O)cc1` ; wanted: its Population Tubulin-Different-Phenotype (%)
[A] 6

[Q] # input compound: `C=C1/C(=C\C=C2/CCC[C@]3(C)[C@@H]([C@H](C)/C=C/[C@H](C)C(C)C)CC[C@@H]23)C[C@@H](O)C[C@@H]1O` ; wanted: its Population Tubulin-Different-Phenotype (%)
[A] 10

[Q] # input compound: `Cc1ccc(C(=O)Nc2cccc(C(F)(F)F)c2)cc1Nc1nc(-c2cccnc2)nc2c1cnn2C` ; wanted: its Population Tubulin-Different-Phenotype (%)
[A] 10

[Q] # input compound: `CCN1CCN(Cc2ccc(Nc3ncc(F)c(-c4cc(F)c5nc(C)n(C(C)C)c5c4)n3)nc2)CC1.CS(=O)(=O)O` ; wanted: its Population Tubulin-Different-Phenotype (%)
[A] 79

[Q] # input compound: CCOC(=O)c1c(C)[nH]c2ccc3c(c12)CN1CCc2cc(OC)ccc2C1O3 (configuration not stated) ; wanted: its Population Tubulin-Different-Phenotype (%)
[A] 13

Where do these numbers come from? They come from ChEMBL document CHEMBL4689842.
